Target: recombinant HDM2 17-125 (human) (UniProt Q00987)
Sequence (Q00987 17-125 limits assumed): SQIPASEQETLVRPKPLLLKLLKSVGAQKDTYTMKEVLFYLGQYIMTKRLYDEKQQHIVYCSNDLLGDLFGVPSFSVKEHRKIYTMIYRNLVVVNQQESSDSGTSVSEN
Assay: fluorescence polarization, FITC-labeled peptide with HDM2 17-125
pKd: −log10 of the molar value. Bridge positions count the residues as written; N and C are the ends. Square brackets hold non-standard residues; d marks the D form. Ends that are not written are not given here. R8 = C=CCCCCCC[C@@](C)(N)C(=O)O; S5 = C=CCCC[C@](C)(N)C(=O)O
MEASURED METRIC: pKd

Answered examples (2):
| BINDER | pKd |
| --- | --- |
| LSQETF[R8]NLWKLL[S5]QN-NH2 (peptide, from a related filing, staple 7-14; not fully specified (N-terminus)) [FITC-SAH-p53-5] | 9.10 |
| QSQQTF[R8]NLWKLL[S5]QN-NH2 (peptide, from a related filing, staple 7-14; not fully specified (N-terminus)) [FITC-SAH-p53-7] | 7.30 |

a = LSQQTF[R8]NLWRLL[S5]QN-NH2 (peptide, from a related filing, staple 7-14; not fully specified (N-terminus)) [FITC-SAH-p53-6]
b = LSQETF[R8]DLWKLL[S5]EN-NH2 (peptide, from a related filing, staple 7-14; not fully specified (N-terminus)) [FITC-SAH-p53-4]
Identify the entry with the larger pKd. Options: a and b Indicate your choice by writing its label.
b
(b: 9.04, a: 7.25)
